test: Plasma protein binding in Sprague-Dawley rat in vitro by ultracentrifugation; details: read-out: PPB (converted)
MEASUREMENT_NAME: fraction unbound

Given COc1ccncc1C(=O)NC(=O)Nc1ccc(-c2ccccc2)c(C(F)(F)F)c1 , state its recorded fraction unbound.
0.05

====

experiment: Intrinsic clearance in rat liver microsomes after 30 mins; assay type: ADME, Microsome; conditions: read-out: CLH
MEASUREMENT_NAME: microsomal CLint (µL/min/mg)
One number for each entry, in µL/min/mg.

Worked cases, answers included:
Item under review: COc1ccccc1C(=O)NC(=O)Nc1ccc(N2CCCCC2)c(Cl)c1 . Reported microsomal CLint?
36

Given COc1ccccc1C(=O)NC(=S)Nc1ccc(N2CCCCC2)c(Cl)c1 , state its recorded microsomal CLint.
29

Consider the compound COc1ccccc1C(=O)NC(=O)Nc1ccc(-c2nccs2)c(C(F)(F)F)c1 and give its measured microsomal CLint.
33

Any idea what its microsomal CLint is? The compound is COc1ccccc1C(=O)NC(=O)Nc1ccc(OCC(F)(F)F)c(C(F)(F)F)c1
25

For the compound COc1ccccc1C(=O)NC(=O)Nc1ccc(-c2ccccc2)c(C(F)(F)F)c1 , what microsomal CLint is on record?
15

Quick check: microsomal CLint of COc1ccccc1C(=O)NC(=O)Nc1ccc(N2CCCCC2)c(C(F)(F)F)c1 ?
26

Further cases:
Please report the recorded microsomal CLint for COc1ccccc1C(=O)NC(=O)Nc1ccc(-c2ccccn2)c(C(F)(F)F)c1 .
15
